Data origin: the supplement of paper PMC9233669

Test system: biotinyl-Val-oxazolone
Experiment: self-aminoacylation, catalytic enhancement (BVO) (fold over background); higher = more active; k-Seq, kA / k0A0; sequences stand for … in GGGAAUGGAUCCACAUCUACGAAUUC…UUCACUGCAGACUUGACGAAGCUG
Variants at the floor of the assay were thinned out.
Listed here are sequences together with their documented self-aminoacylation.
// return just the number, without any unit appended

Example entries and their recorded answers appear below.
AUUCACCUCGGUCGUCGGGUG [Fam2.2 aminoacylation ribozyme variant]; 3.12
AUUCACCUACGACAUCGGGUG [Fam2.2 aminoacylation ribozyme variant]; 2.28
AUUCACCUAGGUGAUCGGGUU [Fam2.2 aminoacylation ribozyme variant]; 1.88
CCGCACUUAAAGCAAUCGGUC [Fam1B.1 aminoacylation ribozyme variant]; 1.25
AUUACCAUGGUCAUCGAGUGG [Fam2.1 aminoacylation ribozyme variant]; 1.63

Per the record, AAGUUUGCGAAUAGUCGCAUG [Fam3.1 aminoacylation ribozyme variant] has self-aminoacylation of 1.08

Per the record, GGACUUCAAACAAUCGGUCUG [Fam1A.1 aminoacylation ribozyme variant] has self-aminoacylation of 1.88

Per the record, ACGUUUGCUAAUUGUCGCAAG [Fam3.1 aminoacylation ribozyme variant] has self-aminoacylation of 1.77

Per the record, AUUCAACUAGGUCAUUGGGUG [Fam2.2 aminoacylation ribozyme variant] has self-aminoacylation of 2.19

###

Test system: biotinyl-Val-oxazolone
Test: self-aminoacylation, catalytic enhancement (BVO) (fold over background); higher = more active; k-Seq, kA / k0A0; sequences stand for … in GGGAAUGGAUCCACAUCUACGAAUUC…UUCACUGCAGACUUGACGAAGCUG
Variants at the floor of the assay were thinned out.
Field: class. Source value: self-aminoacylation. Ranges: group 1: < 0.9; group 2: ≥ 0.9 and < 2; group 3: ≥ 2

Please review the entries below; each comes with its answer.
CCACACUUCAAGCAGUAGGUC [Fam1B.1 aminoacylation ribozyme variant]; group 1
CUACUUCUAACCAUCGGUCUG [Fam1A.1 aminoacylation ribozyme variant]; group 1
AAGUUUGCUACUAGUCGCAAG [Fam3.1 aminoacylation ribozyme variant]; group 1

Task: Lab note: sort AAGUUUGCCAAUAGUCGCGAG [Fam3.1 aminoacylation ribozyme variant] into the matching self-aminoacylation band.
Result: group 3

Task: Lab note: sort CUACUUCAAUCAAUCAGUCUG [Fam1A.1 aminoacylation ribozyme variant] into the matching self-aminoacylation band.
Result: group 1

Task: Lab note: sort CUACUUCAAACCAUCGGUGUG [Fam1A.1 aminoacylation ribozyme variant] into the matching self-aminoacylation band.
Result: group 2

Task: Lab note: sort ACACACUUCAAUCAAUCGGUC [Fam1B.1 aminoacylation ribozyme variant] into the matching self-aminoacylation band.
Result: group 2

Task: Lab note: sort CCACACUUCAAACAAUCGGCC [Fam1B.1 aminoacylation ribozyme variant] into the matching self-aminoacylation band.
Result: group 3

Task: Lab note: sort AUUCACGUAGGUCAUCGGGUG [Fam2.2 aminoacylation ribozyme variant] into the matching self-aminoacylation band.
Result: group 3

Task: Lab note: sort CUACACUUCAGGCAAUCGGUC [Fam1B.1 aminoacylation ribozyme variant] into the matching self-aminoacylation band.
Result: group 2

Task: Lab note: sort AAGUUUGCUCAUAGUUGCAAG [Fam3.1 aminoacylation ribozyme variant] into the matching self-aminoacylation band.
Result: group 1
